# experimentalTarget: hUNG catalytic domain (Homo sapiens, UniProt P13051 94-313)
# Sequence (P13051 94-313): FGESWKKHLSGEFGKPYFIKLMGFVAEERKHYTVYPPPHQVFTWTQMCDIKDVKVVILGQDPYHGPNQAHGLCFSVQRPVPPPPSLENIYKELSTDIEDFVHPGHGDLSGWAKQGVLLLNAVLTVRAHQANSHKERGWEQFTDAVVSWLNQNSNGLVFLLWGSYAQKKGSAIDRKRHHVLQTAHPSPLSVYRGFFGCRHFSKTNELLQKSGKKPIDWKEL
# testProtocol: fluorescence anisotropy; 20% PEG 8K; 20 mM HEPES pH 7.5, 3 mM EDTA, 1 mM DTT, 0.002% Brij 35, 22 mM total Na+; with or without PEG 8K; temperature not stated for binding assays
# cond: protein: recombinant; label: 5'-fluorescein (FAM); (complement implied by Watson-Crick pairing)
outcomeMeasure: pKd
Answers are plain numbers, as −log10 of the molar value.

query: Which pKd is reported for this binder? DN nonspecific 15mer duplex (dsDNA) DNA 1: AGGCGCATAGTCGCA DNA 2: TGCGACTATGCGCCT
result: 5.64

src = paper PMC4417188
